# drug sensitivity score per entry
System: BT-474
assay-notes: drug sensitivity score (DSS), CellTiter-Blue viability (DSS (AUC-based score)); higher = stronger viability inhibition; extreme values may be limits of the assay
applied-conditions: incubation time: 72 h
readout-kind: drug sensitivity score

1. CO[C@H]1C[C@@H]2CC[C@@H](C)[C@@](O)(O2)C(=O)C(=O)N2CCCC[C@H]2C(=O)O[C@H]([C@H](C)C[C@@H]2CC[C@@H](O)[C@H](OC)C2)CC(=O)[C@H](C)/C=C(\C)[C@@H](O)[C@@H](OC)C(=O)[C@H](C)C[C@H](C)/C=C/C=C/C=C/1C: 0
2. N[C@@H](Cc1ccc(N(CCCl)CCCl)cc1)C(=O)O: 0
3. CCN(CC)CCOc1ccc(C(=C(Cl)c2ccccc2)c2ccccc2)cc1: 2.94
4. COc1cc2c(Oc3ccc(NC(=O)C4(C(=O)Nc5ccc(F)cc5)CC4)cc3F)ccnc2cc1OCCCN1CCOCC1: 0

###

System: MDA-MB-436
assay-notes: normalised response (% of control), CellTiter-Glo; higher = more viable cells (100 = DMSO, 0 = benzethonium chloride kill control)
applied-conditions: incubation time: 72 h
Assign Criterion met whenever normalised response does not fall below 90%; assign Criterion not met whenever it does.

1. COc1cc2c(Oc3ccc(NC(=O)C4(C(=O)Nc5ccc(F)cc5)CC4)cc3F)ccnc2cc1OCCCN1CCOCC1 [Foretinib] (10 nM): Criterion met
2. C[C@]12C=CC(=O)C=C1CC[C@@H]1[C@@H]2C(=O)C[C@@]2(C)[C@H]1CC[C@]2(O)C(=O)CO [Prednisone] (100 nM): Criterion met
3. CN1CCc2c(c3ccccc3n2Cc2ccc(C(=O)NO)cc2)C1 [Tubastatin A] (100 nM): Criterion met
4. N[C@@H](Cc1ccc(N(CCCl)CCCl)cc1)C(=O)O [Melphalan] (125 nM): Criterion met
5. CCc1cnn2c(NCc3ccc[n+]([O-])c3)cc(N3CCCC[C@H]3CCO)nc12 [Dinaciclib] (10 nM): Criterion not met

###

System: CAL-85-1
assay-notes: normalised response (% of control), CellTiter-Glo; higher = more viable cells (100 = DMSO, 0 = benzethonium chloride kill control)
applied-conditions: incubation time: 72 h
Recorded normalised response, one value per entry.
readout-kind: normalised response (%)

1) O=C(c1cc(Cc2n[nH]c(=O)c3ccccc23)ccc1F)N1CCN(C(=O)C2CC2)CC1 [Olaparib] (10000 nM): 87.5
2) CC(C)(C)Cn1c(N)nc2ccc(-c3[nH]c(C(C)(C)C)nc3-c3ccc(F)cc3)nc21 (10000 nM): 64.9
3) CC(C)NC[C@@H](C(=O)N1CCN(c2ncnc3c2[C@H](C)C[C@H]3O)CC1)c1ccc(Cl)cc1 [GDC-0068] (10000 nM): 66.1
4) CCc1c(C(=O)C(N)=O)c2c(OCC(=O)O)cccc2n1Cc1ccccc1 [Varespladib] (10000 nM): 104
5) Cn1cc(C[C@@H](N)C(=O)O)c2ccccc21 [1-methyl-D-tryptophan] (5000 nM): 98.3
6) Cc1c(N)nc([C@H](CC(N)=O)NC[C@H](N)C(N)=O)nc1C(=O)N[C@H](C(=O)N[C@H](C)[C@@H](O)[C@H](C)C(=O)N[C@H](C(=O)NCCc1nc(-c2nc(C(=O)NCCC[S+](C)C)cs2)cs1)[C@@H](C)O)[C@@H](OC1OC(CO)C(O)C(O)C1OC1OC(CO)C(O)C(OC(N)=O)C1O)c1cnc[nH]1 (stereo partly specified) [Bleomycin] (10000 nM): 64.3
